The origin of these recorded values is patent US20130053430A1.

Test system: human CETP mRNA
Procedure Summary: Antisense inhibition of human CETP mRNA in primary hepatocytes from huCETP transgenic mice (Example 4)
Assay type: cell-based, mouse
Particulars: 100 nM, cytofectin, ~24 hours
Strand notation (5' to 3'): a small letter for the sugar, then the base; units joined by * are phosphorothioate-linked, units joined directly phosphodiester-linked; [ ] holds rarer units or linkages, { } end groups; capitals alone tell only the bases. e = 2'-O-(2-methoxyethyl) (MOE); [5mC] = 5-methylcytosine; d = 2'-deoxy (DNA)
Measurement Name: Percent inhibition of human CETP mRNA

# Substance, Measurement Name, Test Result
data = [
    ("ISIS 349487: 5-10-5 MOE gapmer CCCATCAGGCTGAGCATGAG (e[5mC]*e[5mC]*e[5mC]*eA*eT*d[5mC]*dA*dG*dG*d[5mC]*dT*dG*dA*dG*d[5mC]*eA*eT*eG*eA*eG)", "Percent inhibition of human CETP mRNA", "84%"),
    ("ISIS 349513: 5-10-5 MOE gapmer TCCAGCTGTGAGCCTGGTGC (eT*e[5mC]*e[5mC]*eA*eG*d[5mC]*dT*dG*dT*dG*dA*dG*d[5mC]*d[5mC]*dT*eG*eG*eT*eG*e[5mC])", "Percent inhibition of human CETP mRNA", "73%"),
    ("ISIS 349483: 5-10-5 MOE gapmer CTCTGAGACATTCTTGTAGA (e[5mC]*eT*e[5mC]*eT*eG*dA*dG*dA*d[5mC]*dA*dT*dT*d[5mC]*dT*dT*eG*eT*eA*eG*eA)", "Percent inhibition of human CETP mRNA", "77%"),
]

---

Procedure Summary: Plasma cholesterol and triglyceride levels in huCETP transgenic mice (Example 5)
Type: in vivo
Particulars: plasma, 50 mg/kg i.p. twice per week, week 6
e = 2'-O-(2-methoxyethyl) (MOE); d = 2'-deoxy (DNA)
Catalogue of Total cholesterol readings, one per entry.

# Substance, Total cholesterol / mg/dL
rows = [
    ("ISIS 349515: 5-10-5 MOE gapmer AACTTCCACCACGCTGGAGG (sugars from the 5' end e5 d10 e5, backbone and methylation of C not given here)", 87),
    ("ISIS 349512: 5-10-5 MOE gapmer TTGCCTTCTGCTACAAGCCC (sugars from the 5' end e5 d10 e5, backbone and methylation of C not given here)", 134),
    ("ISIS 349517: 5-10-5 MOE gapmer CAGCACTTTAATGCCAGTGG (sugars from the 5' end e5 d10 e5, backbone and methylation of C not given here)", 75),
    ("ISIS 349511: 5-10-5 MOE gapmer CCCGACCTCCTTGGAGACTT (sugars from the 5' end e5 d10 e5, backbone and methylation of C not given here)", 88),
]

---

Test system: human CETP mRNA
Procedure Summary: Antisense inhibition of human CETP mRNA in primary hepatocytes from huCETP transgenic mice (Example 4)
Type: cell-based, mouse
Particulars: 100 nM, cytofectin, ~24 hours
Procedure: Transgenic mice expressing human CETP, controlled by its natural flanking region, increase expression of this gene in response to hypercholesterolemia (Jiang, X. C. et al., J. Clin. Invest. 1992. 90: 1290-1295). […] After approximately 24 hours, RNA was isolated from the cells and CETP mRNA levels were measured by quantitative real-time PCR. CETP mRNA transcript levels were adjusted according to total RNA content, as measured by the house-keeping gene, GAPDH mRNA levels. […]
Strand notation (5' to 3'): a small letter for the sugar, then the base; units joined by * are phosphorothioate-linked, units joined directly phosphodiester-linked; [ ] holds rarer units or linkages, { } end groups; capitals alone tell only the bases. e = 2'-O-(2-methoxyethyl) (MOE); [5mC] = 5-methylcytosine; d = 2'-deoxy (DNA)
Catalogue of Percent inhibition of human CETP mRNA readings, one per entry.

# Substance, Percent inhibition of human CETP mRNA [%]
records = [
    ("ISIS 349478: 5-10-5 MOE gapmer ATGATGTTAGAGATGACGTT (eA*eT*eG*eA*eT*dG*dT*dT*dA*dG*dA*dG*dA*dT*dG*eA*e[5mC]*eG*eT*eT)", 6),
    ("ISIS 349509: 5-10-5 MOE gapmer CATCTGCAGCAGCAGGAAGC (e[5mC]*eA*eT*e[5mC]*eT*dG*d[5mC]*dA*dG*d[5mC]*dA*dG*d[5mC]*dA*dG*eG*eA*eA*eG*e[5mC])", 22),
    ("ISIS 349491: 5-10-5 MOE gapmer AGCCGCCGACAACCTCTTGG (eA*eG*e[5mC]*e[5mC]*eG*d[5mC]*d[5mC]*dG*dA*d[5mC]*dA*dA*d[5mC]*d[5mC]*dT*e[5mC]*eT*eT*eG*eG)", 60),
]

---

Catalogue of Body weights readings, one per entry.
Procedure Summary: Body and organ weights of huCETP transgenic mice (Example 5)
Format: in vivo
Particulars: 50 mg/kg i.p. twice per week, week 6
e = 2'-O-(2-methoxyethyl) (MOE); d = 2'-deoxy (DNA)

# Substance, Body weights (grams)
measured = [
    ("ISIS 349515: 5-10-5 MOE gapmer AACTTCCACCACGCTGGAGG (sugars from the 5' end e5 d10 e5, backbone and methylation of C not given here)", 28),
    ("ISIS 349517: 5-10-5 MOE gapmer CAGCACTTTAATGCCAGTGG (sugars from the 5' end e5 d10 e5, backbone and methylation of C not given here)", 29),
    ("ISIS 349512: 5-10-5 MOE gapmer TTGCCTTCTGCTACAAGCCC (sugars from the 5' end e5 d10 e5, backbone and methylation of C not given here)", 28),
    ("ISIS 349511: 5-10-5 MOE gapmer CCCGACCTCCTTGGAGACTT (sugars from the 5' end e5 d10 e5, backbone and methylation of C not given here)", 26),
]

---

System: human CETP mRNA
Procedure Summary: Antisense inhibition of human CETP mRNA in primary hepatocytes from huCETP transgenic mice (Example 4)
Type: cell-based, mouse
Particulars: 200 nM, cytofectin, ~24 hours
Strand notation (5' to 3'): a small letter for the sugar, then the base; units joined by * are phosphorothioate-linked, units joined directly phosphodiester-linked; [ ] holds rarer units or linkages, { } end groups; capitals alone tell only the bases. e = 2'-O-(2-methoxyethyl) (MOE); [5mC] = 5-methylcytosine; d = 2'-deoxy (DNA)
Label class 1 when Percent inhibition of human CETP mRNA is at or above 60%; anything below gets class 0.

# Substance, Assigned Category
records = [
    ("ISIS 349504: 5-10-5 MOE gapmer TGACCTCAGGGATGCCCACA (eT*eG*eA*e[5mC]*e[5mC]*dT*d[5mC]*dA*dG*dG*dG*dA*dT*dG*d[5mC]*e[5mC]*e[5mC]*eA*e[5mC]*eA)", "class 1"),
    ("ISIS 349464: 5-10-5 MOE gapmer CTTCCACCAGCTCCACCTGG (e[5mC]*eT*eT*e[5mC]*e[5mC]*dA*d[5mC]*d[5mC]*dA*dG*d[5mC]*dT*d[5mC]*d[5mC]*dA*e[5mC]*e[5mC]*eT*eG*eG)", "class 0"),
    ("ISIS 349470: 5-10-5 MOE gapmer GAGGTCAATGGCAGAGTCGA (antisense eG*eA*eG*eG*eT*d[5mC]*dA*dA*dT*dG*dG*d[5mC]*dA*dG*dA*eG*eT*e[5mC]*eG*eA)", "class 0"),
    ("ISIS 349481: 5-10-5 MOE gapmer AGGTAGGAGGCTGTGATGAC (eA*eG*eG*eT*eA*dG*dG*dA*dG*dG*d[5mC]*dT*dG*dT*dG*eA*eT*eG*eA*e[5mC])", "class 1"),
]

---

Tested on: human CETP mRNA
Procedure Summary: Dose-dependent antisense inhibition of human CETP in SW872 liposarcoma cells (Example 2)
Format: cell-based
Particulars: 150 nM, Lipofectin, ~16 hours (Example 2)
Procedure: Cells were plated at a density of 50,000 cells per well in a 24-well plate and transfected using Lipofectin reagent with 50 nM, 150 nM, and 300 nM concentrations of each antisense oligonucleotide. After approximately 16 hours, RNA was isolated from the cells and CETP mRNA levels were measured by quantitative real-time PCR. CETP mRNA levels were normalized to total RNA content, as measured by the house-keeping gene, GAPDH mRNA levels. […]
Strand notation (5' to 3'): a small letter for the sugar, then the base; units joined by * are phosphorothioate-linked, units joined directly phosphodiester-linked; [ ] holds rarer units or linkages, { } end groups; capitals alone tell only the bases. e = 2'-O-(2-methoxyethyl) (MOE); [5mC] = 5-methylcytosine; d = 2'-deoxy (DNA)

# Substance, percent inhibition of CETP, %
measured = [
    ("ISIS 349465: 5-10-5 MOE gapmer GAGACATCAATGGACTTGGC (eG*eA*eG*eA*e[5mC]*dA*dT*d[5mC]*dA*dA*dT*dG*dG*dA*d[5mC]*eT*eT*eG*eG*e[5mC])", 87),
    ("ISIS 349490: 5-10-5 MOE gapmer CCTCTTGGAAGATTTCCTGG (e[5mC]*e[5mC]*eT*e[5mC]*eT*dT*dG*dG*dA*dA*dG*dA*dT*dT*dT*e[5mC]*e[5mC]*eT*eG*eG)", 93),
    ("ISIS 349512: 5-10-5 MOE gapmer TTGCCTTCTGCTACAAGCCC (sugars from the 5' end e5 d10 e5, backbone and methylation of C not given here)", 98),
    ("ISIS 349517: 5-10-5 MOE gapmer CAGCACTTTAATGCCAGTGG (sugars from the 5' end e5 d10 e5, backbone and methylation of C not given here)", 98),
    ("ISIS 349506: 5-10-5 MOE gapmer CGCCTTTGCTGTTCATGAGG (e[5mC]*eG*e[5mC]*e[5mC]*eT*dT*dT*dG*d[5mC]*dT*dG*dT*dT*d[5mC]*dA*eT*eG*eA*eG*eG)", 86),
]
